experiment: Induction of mitochondrial uncoupled respiration in rat L6 myoblasts assessed as increase in oxygen consumption rate at 10 uM measured by Agilent Seahorse XF analyzer; type: functional
I'd be grateful if you could share measured Activity for these entries.
Numbers only, in %.

Examples from the recorded data:
{"columns": ["Chemical Smiles", "Measured Result"],
 "data": [
  ["Fc1ccc(C(F)(F)F)cc1Nc1nc2nc(C(F)(F)F)[nH]c2nc1Nc1cc(C(F)(F)F)ccc1F", 100],
  ["Fc1cccc(Nc2nc3[nH]c(C(F)(F)F)nc3nc2Nc2ccccc2F)c1", 100],
  ["Fc1ccccc1Nc1nc2nc(C(F)(F)F)[nH]c2nc1Nc1ccccc1F", 50]
]}

Query: Which Activity reading was recorded for the compound Cn1c(C(F)(F)F)nc2nc(Nc3cc(C(F)(F)F)cc(C(F)(F)F)c3)c(Nc3cc(C(F)(F)F)cc(C(F)(F)F)c3)nc21 ?
Response: 100

----------
test: Induction of mitochondrial uncoupled respiration in rat L6 myoblasts assessed as increase in oxygen consumption rate at 10 uM measured by Agilent Seahorse XF analyzer; format: functional
I'd be grateful if you could share measured Activity for these entries.

Examples from the recorded data:
{"columns": ["Chemical Smiles", "Activity"],
 "data": [
  ["Fc1c(Nc2nc3nc(C(F)(F)F)[nH]c3nc2Nc2cccc(C(F)(F)F)c2F)cccc1C(F)(F)F", ">150%"],
  ["Fc1cccc(Nc2nc3nc(C(F)(F)F)[nH]c3nc2Nc2cccc(F)c2F)c1F", ">150%"]
]}

Please turn your attention to the following entry.
Query: Which Activity reading was recorded for the compound FC(F)(F)c1nc2nc(Nc3ccccc3C(F)(F)F)c(Nc3ccccc3C(F)(F)F)nc2[nH]1 ?
Response: >150%
